- test.system: Cruzipain (Trypanosoma cruzi)
- test.description: Reversible inhibition of Trypanosoma cruzi cruzain using Cbz-Phe-Arg-AMC as substrate at 0.1 times apparent Ki preincubated for 2 hrs followed by 100-fold dilution in presence of substrate by rapid dilution assay relative to control
reported.property: inhibition (%)
Numeric only. Scale: %

A selection of reference data follows.
>  <compound>
COc1ccc2c(c1)C[C@H](NC(=O)[C@H](Cc1ccccc1)NC(=O)OCc1ccccc1)C(O)O2 (stereo partly specified)

>  <inhibition (%)>
9

$$$$
>  <compound>
O=C(N[C@@H](Cc1ccccc1)C(=O)N[C@H]1Cc2cc(Cl)ccc2OC1O)OCc1ccccc1 (stereo partly specified)

>  <inhibition (%)>
9

$$$$

The compound COC(=O)c1ccc2c(c1)C[C@H](NC(=O)[C@H](Cc1ccccc1)NC(=O)OCc1ccccc1)C(O)O2 (stereo partly specified) showed inhibition equal to 9

The compound O=C(N[C@@H](Cc1ccccc1)C(=O)N[C@H]1Cc2ccccc2OC1O)OCc1ccccc1 (stereo partly specified) showed inhibition equal to 9

The compound O=C(N[C@@H](Cc1ccccc1)C(=O)N[C@H]1Cc2cc(F)ccc2OC1O)OCc1ccccc1 (stereo partly specified) showed inhibition equal to 9

The compound Cc1ccc2c(c1)C[C@H](NC(=O)[C@H](Cc1ccccc1)NC(=O)OCc1ccccc1)C(O)O2 (stereo partly specified) showed inhibition equal to 9
